Test: physchem
Conditions: phosphate buffer, pH 7, aqueous buffer
measurementLabel: solubility at 24 h (µg/mL)
Give your result in µg/mL as a bare value.

Query block: For CCC(=O)Oc1ccc2c3c1O[C@H]1[C@@H](O)C=C[C@H]4[C@@H](C2)N(C)CC[C@@]341 , write its solubility at 24 h.
Result block: 21000

Query block: For CCCCCC(=O)Oc1ccc2c3c1O[C@H]1[C@@H](OC(=O)CCCCC)C=C[C@H]4[C@@H](C2)N(C)CC[C@@]341 , write its solubility at 24 h.
Result block: 20

Query block: For CCCCCC(=O)Oc1ccc2c3c1O[C@H]1[C@@H](O)C=C[C@H]4[C@@H](C2)N(C)CC[C@@]341 , write its solubility at 24 h.
Result block: 2600

Query block: For CCC(=O)Oc1ccc2c3c1O[C@H]1[C@@H](OC(=O)CC)C=C[C@H]4[C@@H](C2)N(C)CC[C@@]341 , write its solubility at 24 h.
Result block: 3600

Query block: For CC(C)C(=O)Oc1ccc2c3c1O[C@H]1[C@@H](OC(=O)C(C)C)C=C[C@H]4[C@@H](C2)N(C)CC[C@@]341 , write its solubility at 24 h.
Result block: 600
